Provenance of the data: patent US11130780B2

tgt: thrombin (Homo sapiens)
protocol: Chromogenic kinetic enzyme assay of thrombin
Type: biochemical
measurementConditions: Table 4.1; read-out: Thrombin Ki
quantityMeasured: Ki

Example results:
CC(=O)N[C@@H](CO)C(=O)N[C@@H](CCCCN)C(=O)N[C@@H](CC(C)C)C(=O)N[C@@H](CCCNC(=N)N)C(=O)c1nccs1 [Compound 6, Ac-SKLR(SEQ ID NO: 10)-kt]
> 20 µM
CC(=O)N[C@@H](CCCNC(=N)N)C(=O)N[C@@H](CCC(N)=O)C(=O)N[C@@H](CC(C)C)C(=O)N[C@@H](CCCNC(=N)N)C(=O)c1nccs1 [Compound 5e, Ac-RQLR(SEQ ID NO: 6)-kt]
> 20 µM

Q: Under thrombin (Homo sapiens): Ki value of CC(=O)N[C@@H](CCCCN)C(=O)N[C@@H](CCC(N)=O)C(=O)N[C@@H](CC(C)C)C(=O)N[C@@H](CCCNC(=N)N)C(=O)c1nccs1 [Compound 5, Ac-KQLR(SEQ ID NO: 1)-kt] ?
Ans: > 20 µM

Q: Consider next the molecule CC(=O)N[C@@H](CCCCN)C(=O)N[C@@H](CCC(N)=O)C(=O)N[C@@H](Cc1ccccc1)C(=O)N[C@@H](CCCNC(=N)N)C(=O)c1nccs1 [Compound 5c, Ac-KQFR(SEQ ID NO: 4)-kt] in the same way.
Ans: > 20 µM

Q: Consider next the molecule CC(=O)N[C@@H](CO)C(=O)N[C@@H](CCCCN)C(=O)N[C@@H](Cc1ccccc1)C(=O)N[C@@H](CCCNC(=N)N)C(=O)c1nccs1 [Compound 6c, Ac-SKFR(SEQ ID NO: 13)-kt] in the same way.
Ans: > 2 µM

Q: Consider next the molecule CC(=O)N[C@@H](CO)C(=O)N[C@@H](Cc1c[nH]c2ccccc12)C(=O)N[C@@H](CC(C)C)C(=O)N[C@@H](CCCNC(=N)N)C(=O)c1nccs1 [Compound 6g, Ac-SWLR(SEQ ID NO: 17)-kt] in the same way.
Ans: 3.7 µM
